// provenance: ChEMBL document CHEMBL3751846

biological target: Plasminogen (Homo sapiens, UniProt P00747); assay: Inhibition of plasmin (unknown origin) using H-D-Val-Leu-Lys-pNA as substrate
Sequence (P00747 97-580 limits assumed): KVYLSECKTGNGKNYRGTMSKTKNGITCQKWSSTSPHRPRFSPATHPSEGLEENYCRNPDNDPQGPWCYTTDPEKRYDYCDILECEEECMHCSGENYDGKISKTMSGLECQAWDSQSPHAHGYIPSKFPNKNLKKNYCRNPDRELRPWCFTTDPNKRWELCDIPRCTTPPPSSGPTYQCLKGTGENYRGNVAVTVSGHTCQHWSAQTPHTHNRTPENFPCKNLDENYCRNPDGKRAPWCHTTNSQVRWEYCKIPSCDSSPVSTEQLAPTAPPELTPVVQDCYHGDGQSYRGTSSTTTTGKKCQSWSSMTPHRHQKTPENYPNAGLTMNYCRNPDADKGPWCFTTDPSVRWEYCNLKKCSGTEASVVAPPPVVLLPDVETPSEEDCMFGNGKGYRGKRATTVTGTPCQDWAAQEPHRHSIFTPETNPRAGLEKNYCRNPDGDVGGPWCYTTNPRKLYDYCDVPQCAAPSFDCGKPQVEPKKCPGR
Sequence (P00747 581-810 limits assumed): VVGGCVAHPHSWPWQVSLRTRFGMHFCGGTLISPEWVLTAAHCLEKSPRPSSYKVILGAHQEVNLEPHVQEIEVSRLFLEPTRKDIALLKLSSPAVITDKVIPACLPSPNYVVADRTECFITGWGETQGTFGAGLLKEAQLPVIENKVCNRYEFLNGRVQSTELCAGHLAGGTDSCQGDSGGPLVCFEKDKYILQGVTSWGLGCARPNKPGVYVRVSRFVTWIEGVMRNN
pIC50: −log10 of the molar value.
# if value of pIC50 reaches 6, tag criterion met; if it stays below, tag criterion not met

For this molecule, is measured pIC50 6 or higher? CCCCCCCCNC(=O)[C@H](Cc1ccc(OCc2ccc(C(=O)OCC)cc2)cc1)NC(=O)[C@H]1CC[C@H](CN)CC1
criterion met

API: above_or_equal(metric=pIC50, cutoff=6) for item CCCCCCCCNC(=O)[C@H](Cc1ccc(OCc2cccc(C(=O)OCC)c2)cc1)NC(=O)[C@H]1CC[C@H](CN)CC1
criterion met

Reported pIC50 reaches at least 6 for CCCCCCCCNC(=O)[C@H](Cc1ccc(OCc2ccc(C(=O)O)cc2)cc1)NC(=O)[C@H]1CC[C@H](CN)CC1 ?
criterion not met

Record CCCCCCCCNC(=O)[C@H](Cc1ccc(OCc2ccc3ccccc3n2)cc1)NC(=O)[C@H]1CC[C@H](CN)CC1 ; criterion: pIC50 no lower than 6. Met?
criterion met

Does the molecule CCCCCCCCNC(=O)[C@H](Cc1ccc(OCc2ccccc2C(F)(F)F)cc1)NC(=O)[C@H]1CC[C@H](CN)CC1 have recorded pIC50 that is 6 or more?
criterion not met

Is the recorded value of pIC50 equal to or greater than 6 for this molecule? CCCCCCCCNC(=O)[C@H](Cc1ccc(OCc2cccc3cccnc23)cc1)NC(=O)[C@H]1CC[C@H](CN)CC1
criterion met

Does CCCCCCCCNC(=O)[C@H](Cc1ccc(OCc2cccc3ccccc23)cc1)NC(=O)[C@H]1CC[C@H](CN)CC1 have a reported pIC50 of at least 6?
criterion not met
